- Test system: Glycine max (GLXMA)
- protocol_notes: B2 Post-Emergence Efficacy - Test 2
- Assay type: in vivo
- measurement_parameters: 15 g/Ha, 15 days after application, 0=no damage, 100=total kill
measured_endpoint: Herbicidal activity on a 0-100 scale, GLXMA

Worked cases, Herbicidal activity on a 0-100 scale, GLXMA given:
In: Query: Herbicidal activity on a 0-100 scale, GLXMA; subject: Cc1nn(C)c(=O)c(-c2c(F)ccc(Cl)c2CCc2ccc(F)cc2)c1O [Compound 1.048]
Out: 70

In: Query: Herbicidal activity on a 0-100 scale, GLXMA; subject: Cc1nn(C)c(=O)c(-c2c(F)ccc(Cl)c2CCc2ccc(C(F)(F)F)nc2)c1O [Compound 1.042]
Out: 60

In: Query: Herbicidal activity on a 0-100 scale, GLXMA; subject: Cc1nn(C)c(=O)c(-c2c(F)ccc(Cl)c2CCc2ccc(C#N)cc2)c1O [Compound 1.024]
Out: 70

Then there is this compound:
In: Query: Herbicidal activity on a 0-100 scale, GLXMA; subject: Cc1nn(C)c(=O)c(-c2c(F)ccc(Cl)c2CCc2ccc(F)cc2)c1OC(=O)C(C)C [Compound 1.125]
Out: 40
